- SYSTEM_NAME: CidC (Staphylococcus aureus)
- Sequence (Q6PST7 2-579): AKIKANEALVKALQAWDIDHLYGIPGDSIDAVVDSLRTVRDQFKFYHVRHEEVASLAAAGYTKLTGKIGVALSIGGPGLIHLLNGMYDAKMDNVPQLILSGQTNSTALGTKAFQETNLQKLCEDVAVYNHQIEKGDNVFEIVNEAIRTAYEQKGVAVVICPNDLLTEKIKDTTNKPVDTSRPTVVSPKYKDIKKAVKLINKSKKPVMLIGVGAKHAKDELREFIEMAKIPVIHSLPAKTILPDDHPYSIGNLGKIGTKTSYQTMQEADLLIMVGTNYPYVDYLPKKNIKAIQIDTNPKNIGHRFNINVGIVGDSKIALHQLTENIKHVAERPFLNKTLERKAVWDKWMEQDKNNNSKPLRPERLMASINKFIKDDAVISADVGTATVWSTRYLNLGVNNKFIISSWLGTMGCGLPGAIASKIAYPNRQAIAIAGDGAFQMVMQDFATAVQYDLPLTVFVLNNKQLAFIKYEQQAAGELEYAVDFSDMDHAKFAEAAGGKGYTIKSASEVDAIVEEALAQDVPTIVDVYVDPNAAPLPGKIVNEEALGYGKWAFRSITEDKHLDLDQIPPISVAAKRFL
ASSAY_METRIC: IC50 (mM)
// return numeric value only (unit: mM, not printed)

INPUT: Field request: IC50 | item: O=C(O)CC(O)(CC(=O)O)C(=O)O [citrate]
OUTPUT: 10

Attribution: paper PMC5853648
